target: UniProtKB Q9H1R3; assay: radiometric filter-binding kinase assay, Kinase HotSpot; settings: compound 0.5 µM; ATP 10 µM
Sequence (Q9H1R3 whole entry, looked up): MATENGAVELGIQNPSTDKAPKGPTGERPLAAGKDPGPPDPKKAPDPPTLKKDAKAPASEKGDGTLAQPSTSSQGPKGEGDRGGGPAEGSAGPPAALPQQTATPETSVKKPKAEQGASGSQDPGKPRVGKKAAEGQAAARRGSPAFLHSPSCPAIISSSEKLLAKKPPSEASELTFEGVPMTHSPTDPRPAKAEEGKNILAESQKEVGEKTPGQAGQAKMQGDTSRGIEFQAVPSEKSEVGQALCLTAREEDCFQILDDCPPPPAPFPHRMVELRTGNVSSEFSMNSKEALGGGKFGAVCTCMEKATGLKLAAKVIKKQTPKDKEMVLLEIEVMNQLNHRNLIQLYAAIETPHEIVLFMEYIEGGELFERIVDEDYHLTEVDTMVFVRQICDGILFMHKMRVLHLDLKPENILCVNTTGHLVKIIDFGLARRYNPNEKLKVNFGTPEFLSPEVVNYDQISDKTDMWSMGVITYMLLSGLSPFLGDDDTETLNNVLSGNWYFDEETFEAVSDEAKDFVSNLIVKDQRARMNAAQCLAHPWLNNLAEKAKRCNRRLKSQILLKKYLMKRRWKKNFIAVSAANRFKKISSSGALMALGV
Each record here notes measured residual activity.
Numbers only here, please. The scale is %.

[in] residual activity lookup needed for "CNc1cc2c(Nc3cccc(Br)c3)ncnc2cn1" , thanks.
[out] 97.3

[in] Quick one: "COc1ccc(COc2ccc(Cc3cnc(N)nc3N)cc2OC)cc1"
[out] 104

[in] Quick one: CO[C@H]1CC2CC[C@@H](C)[C@@](O)(O2)C(=O)C(=O)N2CCCC[C@H]2C(=O)OC([C@H](C)C[C@@H]2CC[C@@H](O)[C@H](OC)C2)CC(=O)[C@H](C)/C=C(\C)[C@@H](O)[C@@H](OC)C(=O)[C@H](C)C[C@H](C)/C=C/C=C/C=C/1C (some centres not stated)
[out] 103

[in] Quick one: "Nc1ncnc2[nH]nc(Nc3ccc(F)cc3)c12"
[out] 87.3

---

target: UniProt:P49760; assay: radiometric filter-binding kinase assay, Kinase HotSpot; settings: compound 0.5 µM; ATP 10 µM
Sequence (P49760 whole entry, looked up): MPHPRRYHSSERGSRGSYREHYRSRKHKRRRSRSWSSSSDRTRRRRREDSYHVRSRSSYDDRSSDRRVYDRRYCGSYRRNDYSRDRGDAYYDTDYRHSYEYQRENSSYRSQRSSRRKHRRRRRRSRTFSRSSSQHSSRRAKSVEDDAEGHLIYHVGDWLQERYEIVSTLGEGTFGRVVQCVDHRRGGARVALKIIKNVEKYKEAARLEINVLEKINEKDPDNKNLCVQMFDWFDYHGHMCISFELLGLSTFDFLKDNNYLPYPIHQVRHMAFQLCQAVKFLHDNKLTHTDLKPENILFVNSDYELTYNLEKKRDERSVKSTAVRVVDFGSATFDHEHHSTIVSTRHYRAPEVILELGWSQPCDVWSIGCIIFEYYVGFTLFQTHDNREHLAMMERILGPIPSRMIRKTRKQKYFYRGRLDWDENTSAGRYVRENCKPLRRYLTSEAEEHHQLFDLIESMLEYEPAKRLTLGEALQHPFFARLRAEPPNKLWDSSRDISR
Value kind: residual activity (%)
Numbers only here, please. The scale is %.

{"Compound string": "N#CC(C#N)=C(N)/C(C#N)=C/c1ccc(O)cc1", "Target or test system": "UniProt:P49760", "residual activity / %": 100}
{"Compound string": "O=C(Nc1cccc(Nc2nccc(Nc3cccc(C(F)(F)F)c3)n2)c1)C1CC1", "Target or test system": "UniProt:P49760", "residual activity / %": 87.6}

[in] Form field: residual activity recorded for "O=c1cc(N2CCOCC2)oc2c1ccc1ccccc12" with UniProt:P49760 (enter value)
[out] 101

[in] Quick one: "Cc1[nH]c(/C=C2\C(=O)Nc3ccc(S(=O)(=O)N(C)c4cccc(Cl)c4)cc32)c(C)c1C(=O)N1CCN(C)CC1"
[out] 5.1

[in] Quick one: "c1ccc(-c2n[nH]c3c2oc2ccccc23)cc1"
[out] 94.8

[in] Quick one: "Nc1cccc(-c2cc3c(Oc4cccc(O)c4)ncnc3[nH]2)c1"
[out] 98.8

---

target: RPS6KA2 KD1 KD2 (human) (UniProt Q15349); test: radiometric filter-binding kinase assay, Kinase HotSpot; settings: compound 0.5 µM; ATP 10 µM
Sequence (Q15349 whole entry, looked up): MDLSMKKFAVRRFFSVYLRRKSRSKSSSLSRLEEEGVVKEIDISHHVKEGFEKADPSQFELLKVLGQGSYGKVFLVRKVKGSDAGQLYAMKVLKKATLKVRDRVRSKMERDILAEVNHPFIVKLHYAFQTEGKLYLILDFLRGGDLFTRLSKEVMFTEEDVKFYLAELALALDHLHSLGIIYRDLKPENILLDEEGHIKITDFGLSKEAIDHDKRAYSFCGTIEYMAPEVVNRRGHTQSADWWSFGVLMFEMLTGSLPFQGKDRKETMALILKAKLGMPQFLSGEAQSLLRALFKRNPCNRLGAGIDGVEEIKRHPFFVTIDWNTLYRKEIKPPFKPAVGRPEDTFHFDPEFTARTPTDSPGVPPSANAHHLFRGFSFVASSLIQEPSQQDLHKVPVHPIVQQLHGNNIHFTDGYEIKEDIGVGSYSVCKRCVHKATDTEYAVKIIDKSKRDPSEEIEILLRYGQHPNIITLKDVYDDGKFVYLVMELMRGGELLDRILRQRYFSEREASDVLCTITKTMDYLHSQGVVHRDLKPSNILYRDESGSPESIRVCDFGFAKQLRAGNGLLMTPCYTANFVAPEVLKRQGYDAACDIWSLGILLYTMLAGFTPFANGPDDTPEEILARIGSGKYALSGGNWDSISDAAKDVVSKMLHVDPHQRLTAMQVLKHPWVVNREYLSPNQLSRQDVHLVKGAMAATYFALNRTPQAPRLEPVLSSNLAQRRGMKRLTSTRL
Value kind: residual activity (%)
Numbers only here, please. The scale is %.

Below, each entry is followed by its recorded residual activity result.
{"Compound string": "O=C1Nc2ccc(Cl)cc2/C1=C/c1cc(Cl)c(O)c(Cl)c1", "residual activity, %": 71.9}
{"Compound string": "N#C/C(=C(/N)Sc1ccc(N)cc1)c1ccccc1C(F)(F)F", "residual activity, %": 99.2}
{"Compound string": "Nc1ccc2ncnc(NCCc3ccc(Oc4ccccc4)cc3)c2c1", "residual activity, %": 100}
{"Compound string": "Nc1ncnc2c1c(-c1ccc(Oc3ccccc3)cc1)cn2C1CCCC1", "residual activity, %": 101}
{"Compound string": "Cc1ccc(NC2=CC(=O)c3sc(C)nc3C2=O)cc1", "residual activity, %": 82.5}

Next molecule, please.
[in] residual activity lookup needed for "c1ccc(-c2n[nH]cc2-c2ccnc3ccccc23)nc1" , thanks.
[out] 96.3

---

Each record here notes measured residual activity.
target: DYRK1B (human); assay: radiometric filter-binding kinase assay, Kinase HotSpot; conditions: compound 0.5 µM; ATP 10 µM
Numbers only here, please. The scale is %.

Below, each entry is followed by its recorded residual activity result.
{"Compound string": "CCN(CC)C(=O)c1ccc(Nc2nc(OCC3CCCCC3)c3nc[nH]c3n2)cc1", "residual activity [%]": 90.2}
{"Compound string": "O=C1NC(=O)/C(=C/c2ccc3c(c2)OC(F)(F)O3)S1", "residual activity [%]": 101}
{"Compound string": "O=C1Nc2ccc(Cl)cc2/C1=C/c1cc(Cl)c(O)c(Cl)c1", "residual activity [%]": 90.9}
{"Compound string": "CC[n+]1c(/C=C/N(C)c2ccccc2)n(-c2ccccc2)c2ccc(-c3nc4ccccc4s3)cc21", "residual activity [%]": 101}
{"Compound string": "CCCC(=O)Oc1ccc2[nH]c(C(=O)c3cc4ccccc4[nH]3)cc2c1", "residual activity [%]": 103}

[in] residual activity lookup needed for "N#C/C(=C(/N)Sc1ccc(N)cc1)c1ccccc1C(F)(F)F" , thanks.
[out] 99.6

[in] Quick one: "CCC(=O)Nc1ccc2ncnc(Nc3cccc(Br)c3)c2c1"
[out] 95.2

[in] Quick one: "COC[C@H]1OC(=O)c2coc3c2[C@@]1(C)C1=C(C3=O)[C@@H]2CCC(=O)[C@@]2(C)C[C@H]1OC(C)=O"
[out] 100

[in] Quick one: "Cc1ccc(S(=O)(=O)/C=C/C#N)cc1"
[out] 101

[in] Quick one: "O=[N+]([O-])/C=C/c1ccc2c(c1)OCO2"
[out] 112

---

Each record here notes measured residual activity.
target: IKBKB (human); assay: radiometric filter-binding kinase assay, Kinase HotSpot; conditions: compound 0.5 µM; ATP 10 µM
Numbers only here, please. The scale is %.

[in] residual activity lookup needed for "Oc1cccc(-c2nc(N3CCOCC3)c3oc4ncccc4c3n2)c1" , thanks.
[out] 98.3

[in] Quick one: CO[C@H]1CC2CC[C@@H](C)[C@@](O)(O2)C(=O)C(=O)N2CCCC[C@H]2C(=O)OC([C@H](C)C[C@@H]2CC[C@@H](O)[C@H](OC)C2)CC(=O)[C@H](C)/C=C(\C)[C@@H](O)[C@@H](OC)C(=O)[C@H](C)C[C@H](C)/C=C/C=C/C=C/1C (some centres undefined)
[out] 109

[in] Quick one: "CCC(=O)Nc1ccc2ncnc(Nc3cccc(Br)c3)c2c1"
[out] 94.9

[in] Quick one: "COc1ccc2c(c[n+](C)c3c4cc5c(cc4ccc23)OCO5)c1OC"
[out] 103

[in] Quick one: "Cc1ccc(Nc2nccc(N(C)c3ccc4c(C)n(C)nc4c3)n2)cc1S(N)(=O)=O"
[out] 86.9

---

Each record here notes measured residual activity.
molecular target: CAMK2B (human); test: radiometric filter-binding kinase assay, Kinase HotSpot; conditions: compound 0.5 µM; ATP 10 µM
Numbers only here, please. The scale is %.

{"Compound string": "Nc1ncnc2c1c(-c1ccc(Oc3ccccc3)cc1)cn2C1CCCC1", "Target or test system": "CAMK2B (human)", "residual activity [%]": 102}
{"Compound string": "Nc1ccc2ncnc(NCCc3ccc(Oc4ccccc4)cc3)c2c1", "Target or test system": "CAMK2B (human)", "residual activity [%]": 95.1}
{"Compound string": "CC(C)N(CCC(=O)c1ccc2ccccc2c1)Cc1ccccc1", "Target or test system": "CAMK2B (human)", "residual activity [%]": 96.6}
{"Compound string": "CC[n+]1c(/C=C/N(C)c2ccccc2)n(-c2ccccc2)c2ccc(-c3nc4ccccc4s3)cc21", "Target or test system": "CAMK2B (human)", "residual activity [%]": 103}
{"Compound string": "O=S(=O)(c1cccc2cnccc12)N1CCCNCC1", "Target or test system": "CAMK2B (human)", "residual activity [%]": 93.2}

Next compound, please.
[in] residual activity lookup needed for "CCOC(=O)c1c(C)[nH]c(/C=C2\C(=O)Nc3ccccc32)c1C" , thanks.
[out] 96

---

Each record here notes measured residual activity.
molecular target: UniProt P25098; experiment: radiometric filter-binding kinase assay, Kinase HotSpot; conditions: compound 0.5 µM; ATP 10 µM
Sequence (P25098 whole entry, looked up): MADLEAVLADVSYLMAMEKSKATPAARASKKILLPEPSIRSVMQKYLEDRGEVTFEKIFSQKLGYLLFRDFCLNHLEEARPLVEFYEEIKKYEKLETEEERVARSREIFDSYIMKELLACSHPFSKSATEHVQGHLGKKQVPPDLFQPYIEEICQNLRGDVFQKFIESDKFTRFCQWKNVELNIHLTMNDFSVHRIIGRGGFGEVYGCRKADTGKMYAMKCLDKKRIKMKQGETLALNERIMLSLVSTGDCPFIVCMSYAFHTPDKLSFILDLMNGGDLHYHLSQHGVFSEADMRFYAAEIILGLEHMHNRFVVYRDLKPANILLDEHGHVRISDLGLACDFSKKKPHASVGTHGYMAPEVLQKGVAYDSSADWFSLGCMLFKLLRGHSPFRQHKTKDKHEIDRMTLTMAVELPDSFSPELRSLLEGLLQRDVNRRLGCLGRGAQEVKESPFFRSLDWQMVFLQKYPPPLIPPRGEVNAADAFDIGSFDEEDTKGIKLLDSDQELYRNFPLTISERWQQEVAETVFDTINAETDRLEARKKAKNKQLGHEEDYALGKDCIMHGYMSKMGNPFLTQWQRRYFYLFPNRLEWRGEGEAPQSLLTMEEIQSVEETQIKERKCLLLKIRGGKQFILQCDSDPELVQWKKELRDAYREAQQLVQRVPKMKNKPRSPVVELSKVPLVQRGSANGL
Numbers only here, please. The scale is %.

Below, each entry is followed by its recorded residual activity result.
{"Compound": "COc1ccc(COc2ccc(Cc3cnc(N)nc3N)cc2OC)cc1", "Unit spec": "%", "residual activity": 96.1}
{"Compound": "Cc1[nH]c(/C=C2\\C(=O)Nc3ccc(S(=O)(=O)N(C)c4cccc(Cl)c4)cc32)c(C)c1C(=O)N1CCN(C)CC1", "Unit spec": "%", "residual activity": 105}
{"Compound": "COc1cc2ncnc(Nc3cccc(Cl)c3)c2cc1OC", "Unit spec": "%", "residual activity": 96.6}

[in] residual activity lookup needed for "CCOC(=O)c1c(C)[nH]c(/C=C2\C(=O)Nc3ccccc32)c1C" , thanks.
[out] 98.2

[in] Quick one: "Oc1cccc(-c2nc(N3CCOCC3)c3oc4ncccc4c3n2)c1"
[out] 107

[in] Quick one: "CCC(=O)Nc1ccc2ncnc(Nc3cccc(Br)c3)c2c1"
[out] 112

---

molecular target: JAK2 JH1 JH2 (human) (UniProt O60674); test: radiometric filter-binding kinase assay, Kinase HotSpot; details: compound 0.5 µM; ATP 10 µM
Sequence (O60674 whole entry, looked up): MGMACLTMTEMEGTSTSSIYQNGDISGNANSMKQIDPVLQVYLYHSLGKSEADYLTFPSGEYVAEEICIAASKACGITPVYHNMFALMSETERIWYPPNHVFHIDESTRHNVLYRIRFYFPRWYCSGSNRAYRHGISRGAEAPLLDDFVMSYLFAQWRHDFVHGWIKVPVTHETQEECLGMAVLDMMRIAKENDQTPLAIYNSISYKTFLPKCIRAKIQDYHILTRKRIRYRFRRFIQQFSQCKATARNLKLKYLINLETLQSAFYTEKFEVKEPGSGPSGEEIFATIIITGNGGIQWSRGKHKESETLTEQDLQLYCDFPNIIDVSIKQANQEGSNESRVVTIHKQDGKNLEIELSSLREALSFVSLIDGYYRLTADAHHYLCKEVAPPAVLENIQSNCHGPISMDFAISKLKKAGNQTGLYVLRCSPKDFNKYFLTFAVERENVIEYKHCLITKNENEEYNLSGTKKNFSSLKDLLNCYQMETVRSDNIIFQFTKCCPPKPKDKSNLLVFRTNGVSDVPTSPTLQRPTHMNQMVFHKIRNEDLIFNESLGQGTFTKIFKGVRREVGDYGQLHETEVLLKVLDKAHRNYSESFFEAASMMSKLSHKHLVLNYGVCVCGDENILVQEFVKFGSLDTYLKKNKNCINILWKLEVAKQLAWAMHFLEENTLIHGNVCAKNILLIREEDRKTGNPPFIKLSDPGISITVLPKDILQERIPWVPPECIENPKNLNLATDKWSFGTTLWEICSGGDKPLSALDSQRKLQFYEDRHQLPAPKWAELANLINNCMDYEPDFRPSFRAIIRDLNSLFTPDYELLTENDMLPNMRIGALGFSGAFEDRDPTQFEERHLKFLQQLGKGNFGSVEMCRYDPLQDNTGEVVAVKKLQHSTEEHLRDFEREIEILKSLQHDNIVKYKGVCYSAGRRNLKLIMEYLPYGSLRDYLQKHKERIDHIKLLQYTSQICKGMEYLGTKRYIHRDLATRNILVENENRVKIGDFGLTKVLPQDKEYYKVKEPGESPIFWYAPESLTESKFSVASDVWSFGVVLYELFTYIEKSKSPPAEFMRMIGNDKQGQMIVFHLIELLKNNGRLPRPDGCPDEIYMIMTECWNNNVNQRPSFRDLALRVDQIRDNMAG
Value kind: residual activity (%)
Numbers only here, please. The scale is %.

Below, each entry is followed by its recorded residual activity result.
{"Compound string": "N#C/C(=C(/N)Sc1ccc(N)cc1)c1ccccc1C(F)(F)F", "Value kind": "residual activity", "Value measured": 98.7}
{"Compound string": "O=C1NC(=O)c2c1c1c3ccccc3n3c1c1c2c2ccccc2n1C1CCC3O1", "Value kind": "residual activity", "Value measured": 14.2}
{"Compound string": "Cc1ccc(Nc2nccc(N(C)c3ccc4c(C)n(C)nc4c3)n2)cc1S(N)(=O)=O", "Value kind": "residual activity", "Value measured": 101}

[in] residual activity lookup needed for "Nc1ncnc2[nH]nc(Nc3ccc(F)cc3)c12" , thanks.
[out] 105

[in] Quick one: "CC(=O)c1ccc(N2CCOCC2)cc1O"
[out] 93.6

[in] Quick one: "O=C1NC(=O)/C(=C/c2ccc3c(c2)OC(F)(F)O3)S1"
[out] 92.9
